Assignment: determine reported Remaining amount % at 60 min for the given compounds.
- test: In vitro liver microsomal stability assay, human
- Type: in vitro ADME
- details: Human liver microsomes 0.5 mg/mL, NADPH
API: value field is a number in %; no unit string.

Q: Looking for the measured Remaining amount % at 60 min of C[C@@]1(O)CC[C@H]2[C@H](CC[C@@H]3[C@@H]2CC[C@]2(C)[C@@H](C(=O)Cn4cnn(-c5cccc(N)c5)c4=O)CC[C@@H]32)C1 [Compound 22] , can you help?
Result: 8.6

Q: Next compound up: C[C@@]1(O)CC[C@H]2[C@H](CC[C@@H]3[C@@H]2CC[C@]2(C)[C@@H](C(=O)Cn4cnn(-c5cccc(F)c5F)c4=O)CC[C@@H]32)C1 [Compound 27]
Result: 64.13

Q: Moving on to C[C@@]1(O)CC[C@H]2[C@H](CC[C@@H]3[C@@H]2CC[C@]2(C)[C@@H](C(=O)Cn4cnn(-c5ccc(F)cc5)c4=O)CC[C@@H]32)C1 [Compound 4]
Result: 64.0

Q: Check C[C@@]1(O)CC[C@H]2[C@H](CC[C@@H]3[C@@H]2CC[C@]2(C)[C@@H](C(=O)Cn4cnn(-c5cncc(F)c5)c4=O)CC[C@@H]32)C1 [Compound 23] too.
Result: 53.4

Q: // query: C[C@@]1(O)CC[C@H]2[C@H](CC[C@@H]3[C@@H]2CC[C@]2(C)[C@@H](C(=O)Cn4cnn(CCOC(F)(F)F)c4=O)CC[C@@H]32)C1 [Compound 43]
Result: 25.97

Q: Next record, please: C[C@@]1(O)CC[C@H]2[C@H](CC[C@@H]3[C@@H]2CC[C@]2(C)[C@@H](C(=O)Cn4cnn(-c5ccnc(OCC(F)(F)F)c5)c4=O)CC[C@@H]32)C1 [Compound 39]
Result: 76.2

Q: Now consider C[C@@]1(O)CC[C@H]2[C@H](CC[C@@H]3[C@@H]2CC[C@]2(C)[C@@H](C(=O)Cn4cnn(-c5ccc(F)cc5F)c4=O)CC[C@@H]32)C1 [Compound 25] and answer again.
Result: 42

Q: Item: COc1cccc(-n2ncn(CC(=O)[C@H]3CC[C@H]4[C@@H]5CC[C@@H]6C[C@](C)(O)CC[C@@H]6[C@H]5CC[C@]34C)c2=O)c1 [Compound 5]
Result: 43.53

Q: Ok, now C[C@@]1(O)CC[C@@]2(C)[C@@H](CC[C@@H]3[C@@H]2CC[C@]2(C)[C@@H](C(=O)Cn4cnn(-c5cccc(F)c5)c4=O)CC[C@@H]32)C1 [Compound 33]
Result: 85.8

Q: Then C[C@@]1(O)CC[C@H]2[C@H](CC[C@@H]3[C@@H]2CC[C@]2(C)[C@@H](C(=O)Cn4ncn(-c5ccc(F)cc5)c4=O)CC[C@@H]32)C1 [Compound 9] ?
Result: 24.73

Q: Next up: C[C@@]1(O)CC[C@H]2[C@H](CC[C@@H]3[C@@H]2CC[C@]2(C)[C@@H](C(=O)Cn4cnn(-c5cccc(F)c5)c4=O)CC[C@@H]32)C1 [Compound 1]
Result: 89.0
